systemTested: GABAA α4β2γ2 (Homo sapiens, UniProt P47870+P48169)
Construct: host or cells: HEK 293
Sequence (P48169 36-554, one chain of several): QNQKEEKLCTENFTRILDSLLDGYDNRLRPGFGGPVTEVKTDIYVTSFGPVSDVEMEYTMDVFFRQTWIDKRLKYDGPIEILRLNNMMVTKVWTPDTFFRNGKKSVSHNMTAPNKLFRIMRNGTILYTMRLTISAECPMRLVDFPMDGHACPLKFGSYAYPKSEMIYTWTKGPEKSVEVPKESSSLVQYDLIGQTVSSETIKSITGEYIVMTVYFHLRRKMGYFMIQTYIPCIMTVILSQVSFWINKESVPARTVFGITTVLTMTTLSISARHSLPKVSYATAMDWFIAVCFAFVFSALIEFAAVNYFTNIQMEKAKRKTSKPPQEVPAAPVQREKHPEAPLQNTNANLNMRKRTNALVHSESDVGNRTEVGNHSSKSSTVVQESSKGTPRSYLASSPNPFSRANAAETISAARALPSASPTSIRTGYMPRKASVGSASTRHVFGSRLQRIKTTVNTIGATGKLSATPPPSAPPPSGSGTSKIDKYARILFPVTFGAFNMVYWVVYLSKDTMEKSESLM
Sequence (P47870 25-512 limits assumed, one chain of several): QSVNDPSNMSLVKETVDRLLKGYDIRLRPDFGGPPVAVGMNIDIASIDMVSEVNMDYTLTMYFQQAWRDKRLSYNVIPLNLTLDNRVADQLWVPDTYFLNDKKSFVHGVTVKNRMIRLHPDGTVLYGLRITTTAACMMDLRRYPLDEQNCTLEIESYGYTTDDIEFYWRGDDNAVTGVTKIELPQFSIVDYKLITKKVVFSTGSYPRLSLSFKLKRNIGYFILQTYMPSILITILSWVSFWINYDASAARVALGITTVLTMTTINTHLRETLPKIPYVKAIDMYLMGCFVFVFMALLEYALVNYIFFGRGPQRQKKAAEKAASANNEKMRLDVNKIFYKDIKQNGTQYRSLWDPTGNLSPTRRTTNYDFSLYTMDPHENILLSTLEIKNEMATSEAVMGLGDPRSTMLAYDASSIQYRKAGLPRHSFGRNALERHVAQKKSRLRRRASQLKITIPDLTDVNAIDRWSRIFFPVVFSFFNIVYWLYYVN
assayProcedure: FLIPR functional receptor assay, GABAA α4β2γ2
Assay type: cell-based
measurementContext: agonist mode; top test concentration 1 mM
Description: intensity and lower number of tone and shock (2x) pairings to create a greater opportunity to observe pharmacologic activity. Receptor functional & binding assays Functional assays of all GABAA, NMDA (GluN2A–GluN2D) and AMPA (GluA2) receptor subunits were performed by SB Drug Discovery as a part of their CNS discovery panel using FLIPR technology. […] All compounds were tested at 7 concentration points in triplicate and EC50/IC50 was determined where applicable. […]
# key: entry, value: EC50

| compound | result |
| --- | --- |
| C[C@@](N)(CCC(=O)O)C(=O)O [(R)-2MeGlu, (R)-2-methylglutamic acid] | > 1000 µM |

EC50 in this record for C[C@](N)(CCC(=O)O)C(=O)O [(S)-2MeGlu, (S)-2-methylglutamic acid] : > 1000 µM

---

Attribute: EC50
systemTested: GABAA α3β1γ2 (Homo sapiens, UniProt P18505+P34903)
Sequence (P34903 29-492): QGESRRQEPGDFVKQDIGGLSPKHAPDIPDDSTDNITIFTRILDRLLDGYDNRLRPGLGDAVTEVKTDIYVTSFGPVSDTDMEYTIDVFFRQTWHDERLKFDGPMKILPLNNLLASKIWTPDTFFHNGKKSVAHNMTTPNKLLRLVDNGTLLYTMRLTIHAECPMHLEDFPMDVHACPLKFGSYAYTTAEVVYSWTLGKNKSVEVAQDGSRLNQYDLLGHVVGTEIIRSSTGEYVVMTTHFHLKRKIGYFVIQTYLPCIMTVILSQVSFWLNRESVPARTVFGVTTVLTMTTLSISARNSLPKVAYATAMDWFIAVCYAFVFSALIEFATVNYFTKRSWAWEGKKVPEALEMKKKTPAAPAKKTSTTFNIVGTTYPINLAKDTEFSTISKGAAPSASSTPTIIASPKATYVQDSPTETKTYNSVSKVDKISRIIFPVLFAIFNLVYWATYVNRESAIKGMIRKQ
Sequence (P18505 26-474): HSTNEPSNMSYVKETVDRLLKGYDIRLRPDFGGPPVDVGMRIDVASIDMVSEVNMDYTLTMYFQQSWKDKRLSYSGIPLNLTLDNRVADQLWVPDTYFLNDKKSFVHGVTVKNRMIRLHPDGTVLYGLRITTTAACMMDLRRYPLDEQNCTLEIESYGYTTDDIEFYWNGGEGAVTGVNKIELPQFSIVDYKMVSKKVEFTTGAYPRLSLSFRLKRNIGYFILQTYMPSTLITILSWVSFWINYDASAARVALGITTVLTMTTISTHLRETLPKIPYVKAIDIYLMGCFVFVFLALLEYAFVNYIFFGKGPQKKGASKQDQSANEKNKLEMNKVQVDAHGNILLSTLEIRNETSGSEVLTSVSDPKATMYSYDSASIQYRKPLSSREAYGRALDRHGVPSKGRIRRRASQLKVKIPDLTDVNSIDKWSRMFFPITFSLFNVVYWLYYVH
Sequence (P18507 40-475 partner): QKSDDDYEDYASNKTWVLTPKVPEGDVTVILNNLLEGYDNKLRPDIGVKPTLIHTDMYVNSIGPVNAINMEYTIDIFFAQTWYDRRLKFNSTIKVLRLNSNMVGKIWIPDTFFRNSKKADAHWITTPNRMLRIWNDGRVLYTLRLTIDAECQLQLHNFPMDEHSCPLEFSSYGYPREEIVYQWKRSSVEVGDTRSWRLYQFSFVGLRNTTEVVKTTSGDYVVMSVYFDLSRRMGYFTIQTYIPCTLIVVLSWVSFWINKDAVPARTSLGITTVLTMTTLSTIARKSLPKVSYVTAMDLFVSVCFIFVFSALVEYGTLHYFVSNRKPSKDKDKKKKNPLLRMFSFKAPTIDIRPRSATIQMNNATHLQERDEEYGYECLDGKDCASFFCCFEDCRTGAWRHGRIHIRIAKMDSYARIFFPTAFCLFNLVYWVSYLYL
assayProcedure: FLIPR functional receptor assay, GABAA α3β1γ2
measurementContext: agonist mode; top test concentration 1 mM

| compound | result |
| --- | --- |
| C[C@](N)(CCC(=O)O)C(=O)O [(S)-2MeGlu, (S)-2-methylglutamic acid] | 782 µM |

Reported EC50 for C[C@@](N)(CCC(=O)O)C(=O)O [(R)-2MeGlu, (R)-2-methylglutamic acid] was 742 µM

---

systemTested: GABAA α3β3γ2 (Homo sapiens, UniProt P28472+P34903)
assayProcedure: FLIPR functional receptor assay, GABAA α3β3γ2
measurementContext: antagonist mode; top test concentration 1 mM
readoutName: pIC50
On this scale, pIC50 is minus log10 of a concentration expressed in M (mol/L).

Record summary for C[C@](N)(CCC(=O)O)C(=O)O [(S)-2MeGlu, (S)-2-methylglutamic acid] : reported pIC50 = 3.01

---

systemTested: GABAA α2β3γ2 (Homo sapiens, UniProt P28472+P47869)
Sequence (P47869 29-451): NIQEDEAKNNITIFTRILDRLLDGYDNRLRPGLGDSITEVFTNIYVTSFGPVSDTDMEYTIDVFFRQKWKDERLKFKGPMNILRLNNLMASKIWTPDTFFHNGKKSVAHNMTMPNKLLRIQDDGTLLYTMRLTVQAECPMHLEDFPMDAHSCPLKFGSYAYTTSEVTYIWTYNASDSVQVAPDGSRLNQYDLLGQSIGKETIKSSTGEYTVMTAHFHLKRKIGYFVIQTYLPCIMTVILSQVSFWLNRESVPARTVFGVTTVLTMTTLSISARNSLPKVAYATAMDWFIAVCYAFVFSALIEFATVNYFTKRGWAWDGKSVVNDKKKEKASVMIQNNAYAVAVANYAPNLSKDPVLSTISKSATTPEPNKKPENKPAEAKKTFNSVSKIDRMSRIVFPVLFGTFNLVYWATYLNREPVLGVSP
Sequence (P28472 26-473): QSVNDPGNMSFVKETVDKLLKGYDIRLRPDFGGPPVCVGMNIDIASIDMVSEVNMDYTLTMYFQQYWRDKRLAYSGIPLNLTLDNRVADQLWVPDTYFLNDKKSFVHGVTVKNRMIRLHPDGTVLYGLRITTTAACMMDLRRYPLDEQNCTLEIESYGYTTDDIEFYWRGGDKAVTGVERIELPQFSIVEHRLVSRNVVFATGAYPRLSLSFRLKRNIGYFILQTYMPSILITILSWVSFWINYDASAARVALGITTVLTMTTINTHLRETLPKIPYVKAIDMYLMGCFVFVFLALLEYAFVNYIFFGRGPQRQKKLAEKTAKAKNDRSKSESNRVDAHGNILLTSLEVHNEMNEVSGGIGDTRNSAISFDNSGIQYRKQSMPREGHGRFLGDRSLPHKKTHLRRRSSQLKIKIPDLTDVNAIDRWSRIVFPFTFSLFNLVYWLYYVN
Sequence (P18507 40-475 partner): as the sequence (P18507 40-475 partner) above
assayProcedure: FLIPR functional receptor assay, GABAA α2β3γ2
measurementContext: agonist mode; top test concentration 1 mM
readoutName: EC50 (µM)
Note: unit µM is implicit; provide only the numeric part.

| compound | EC50 (µM) |
| --- | --- |
| C[C@](N)(CCC(=O)O)C(=O)O [(S)-2MeGlu, (S)-2-methylglutamic acid] | 342 |

Let us move to another entry and its EC50.
Query C[C@@](N)(CCC(=O)O)C(=O)O [(R)-2MeGlu, (R)-2-methylglutamic acid] yields EC50 of 622

---

systemTested: GABAA α3β3γ2 (Homo sapiens, UniProt P28472+P34903)
assayProcedure: FLIPR functional receptor assay, GABAA α3β3γ2
measurementContext: agonist mode; top test concentration 1 mM
readoutName: pEC50
Please report pEC50 as the negative decimal logarithm of the molar concentration, giving only the number.

| compound | pEC50 |
| --- | --- |
| C[C@](N)(CCC(=O)O)C(=O)O [(S)-2MeGlu, (S)-2-methylglutamic acid] | 3.14 |

// next item, pEC50 requested
Reported pEC50 ( C[C@@](N)(CCC(=O)O)C(=O)O [(R)-2MeGlu, (R)-2-methylglutamic acid] ) = 3.02

---

assayProcedure: Metabolism in synaptosomes (GABA shunt, glutamate-glutamine cycle)
Assay type: in vitro ADME, mouse
measurementContext: mouse, mouse cerebral synaptosomes; synaptosomes preloaded with 100 μM substrate, 37 °C; estimated; read-out: Synaptosomal concentration half life
readoutName: half-life at 100 μM (min)
A number alone suffices; assume min.

Entry CC(N)(CCC(=O)O)C(=O)O (racemic) [rac-2MeGlu, 2-methylglutamate] — recorded half-life at 100 μM = 21

---

systemTested: GABAA α4β1γ2 (Homo sapiens, UniProt P18505+P48169)
Sequence (P48169 36-554, one chain of several): as the sequence (P48169 36-554, one chain of several) above
assayProcedure: FLIPR functional receptor assay, GABAA α4β1γ2
measurementContext: agonist mode; top test concentration 1 mM
Measured EC50, listed per entry.
Quote the value and follow it with the unit of measurement.

| molecule | EC50 |
| --- | --- |
| C[C@](N)(CCC(=O)O)C(=O)O [(S)-2MeGlu, (S)-2-methylglutamic acid] | 704 µM |

// C[C@@](N)(CCC(=O)O)C(=O)O [(R)-2MeGlu, (R)-2-methylglutamic acid] : EC50 value = 870 µM

Values from paper PMC8047011
